Here the recorded A450 is given for each entry.
# test.target: T1, Mouse Id3: Histidine (mouse, UniProt P41133 1-119)
# T1 construct: Fusion protein made in E. coli from vector pGW07; also called m-Id3: His; Mouse Id3 (coated wells); not shown: His tag
# T1 sequence: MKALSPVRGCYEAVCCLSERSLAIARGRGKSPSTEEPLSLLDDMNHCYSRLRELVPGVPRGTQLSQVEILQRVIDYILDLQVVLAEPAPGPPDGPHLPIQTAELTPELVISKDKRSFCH
# assay.details: ELISA, Ab 0.000 µg/ml (blank)

| binder | A450 |
| --- | --- |
| rabbit monoclonal anti-mouse/human Id3, clone #BCH-4/#42-1 (antibody, V domains shown, Rabbit IgG from a rabbit hybridoma; also called m/h Id3 MoAb 42-1) VH: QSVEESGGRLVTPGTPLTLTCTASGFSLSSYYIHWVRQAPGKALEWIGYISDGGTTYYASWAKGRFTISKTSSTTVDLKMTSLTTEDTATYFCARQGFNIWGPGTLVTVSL VL: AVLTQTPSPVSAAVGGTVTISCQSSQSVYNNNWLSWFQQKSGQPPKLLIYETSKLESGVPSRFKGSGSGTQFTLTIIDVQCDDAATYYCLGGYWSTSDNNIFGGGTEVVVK | 0.047 A450 |
| rabbit monoclonal anti-mouse/human Id3, clone #BCH-4/#6-1 (antibody, V domains shown, Rabbit IgG from a rabbit hybridoma; also called m/h Id3 MoAb 6-1) VH: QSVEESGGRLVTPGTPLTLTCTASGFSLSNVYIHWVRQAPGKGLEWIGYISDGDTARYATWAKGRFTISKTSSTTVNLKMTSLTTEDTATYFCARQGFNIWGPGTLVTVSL VL: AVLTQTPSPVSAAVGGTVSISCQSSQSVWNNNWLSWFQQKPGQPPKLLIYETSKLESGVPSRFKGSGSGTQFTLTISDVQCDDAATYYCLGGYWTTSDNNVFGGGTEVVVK | 0.047 A450 |
| rabbit monoclonal anti-mouse/human Id3, clone #BCH-4/#16-1 (antibody, V domains shown, Rabbit IgG from a rabbit hybridoma; also called m/h Id3 MoAb 16-1) VH: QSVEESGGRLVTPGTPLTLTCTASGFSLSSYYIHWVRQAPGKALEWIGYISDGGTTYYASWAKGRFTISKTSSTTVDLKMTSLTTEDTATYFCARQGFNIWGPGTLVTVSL VL: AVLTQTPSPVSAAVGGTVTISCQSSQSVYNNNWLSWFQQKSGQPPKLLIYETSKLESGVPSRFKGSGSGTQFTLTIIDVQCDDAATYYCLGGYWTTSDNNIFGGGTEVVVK | 0.044 A450 |

The measurements presented in this section are drawn from patent US20070178531A1.
